# System: MCF7
# assay-info: Antiproliferative activity against human MCF7 cells assessed as inhibition of cell growth incubated for 72 hrs by MTT assay
# Assay type: functional, cell-based
# condition: MCF7, 72 h
reported-endpoint: pIC50
Answers are plain numbers, as −log10 of the molar value.

Would you mind giving pIC50 for every compound in the list below?
1. COc1ccc2c(c1)CC[C@@H]1[C@@H]2CC[C@]2(C)c3c(cnnc3P(=O)(c3ccccc3)c3ccccc3)C[C@@H]12
2. C[C@]12CCC(=O)C=C1CC[C@@H]1[C@@H]2CC[C@]2(C)c3c(cnnc3P(=O)(Nc3ccccc3)Nc3ccccc3)C[C@@H]12
3. CC(=O)O[C@H]1CC[C@@]2(C)C(=CC[C@@H]3[C@@H]2CC[C@]2(C)c4c(cnnc4P(=O)(NC(C)(C)C)NC(C)(C)C)C[C@@H]32)C1
4. CC(C)(C)NP(=O)(NC(C)(C)C)c1nncc2c1[C@@]1(C)CC[C@H]3[C@@H](CCC4=CC(=O)CC[C@@]43C)[C@@H]1C2
5. CC(C)(C)NP(=O)(NC(C)(C)C)c1nncc2c1[C@@]1(C)CC[C@@H]3c4ccc(O)cc4CC[C@H]3[C@@H]1C2
6. CC/C(=C(\c1ccc(O)cc1)c1ccc(OCCN(C)C)cc1)c1ccccc1
7. C[C@]12CC[C@H](O)CC1=CC[C@@H]1[C@@H]2CC[C@]2(C)c3c(cnnc3P(=O)(c3ccccc3)c3ccccc3)C[C@@H]12

OUT:
1. 5.07
2. 5.23
3. 4.79
4. 4.73
5. 4.65
6. 5.28
7. 4.76
